Consider the following molecules and their measured Ki readings.
biological target: μ-opioid receptor (Homo sapiens (Human), UniProt P35372); assay: μ-opioid receptor radioligand dose-displacement binding assay ([3H]-diprenorphine); settings: binding affinity, μ-opioid receptor membranes
recorded-endpoint: Ki (nM)

smiles_code=O=C(O)CCC[C@]12CCN(CC3CC3)[C@H](Cc3ccc(O)cc31)[C@@H]2CC(=O)O recorded_endpoint=Ki measured=977
smiles_code=CN(C)C(=O)CCC[C@]12CCN(CC3CC3)[C@H](Cc3ccc(O)cc31)/C2=C\C(=O)O recorded_endpoint=Ki measured=853
smiles_code=O=C(O)/C=C1\[C@H]2Cc3ccc(O)cc3[C@]1(CCCC(=O)O)CCN2CC1CC1 recorded_endpoint=Ki measured=1340

* * *

target: κ opioid receptor (Homo sapiens (Human)); assay: κ-opioid receptor [35S]GTPγS functional assay; type: biochemical; conditions: maximal effect relative to U69,593
Consider the following compounds and their measured Emax readings.
recorded-endpoint: Emax (%)

smiles_code=O=C(O)CCC[C@]12CCN(CC3CC3)[C@H](Cc3ccc(O)cc31)[C@@H]2CC(=O)O assayed_system="κ opioid receptor (Homo sapiens (Human))" measured=31.3
smiles_code=O=C(O)/C=C1\[C@H]2Cc3ccc(O)cc3[C@]1(CCCC(=O)O)CCN2CC1CC1 assayed_system="κ opioid receptor (Homo sapiens (Human))" measured=74.3
smiles_code=CN(C)C(=O)CCC[C@]12CCN(CC3CC3)[C@H](Cc3ccc(O)cc31)/C2=C\C(=O)O assayed_system="κ opioid receptor (Homo sapiens (Human))" measured=74.7
smiles_code=COc1ccc2c(c1)[C@]1(CCO)CCN(CC3CC3)[C@H](C2)[C@@H]1CO assayed_system="κ opioid receptor (Homo sapiens (Human))" measured=40.3
smiles_code=COc1ccc2c(c1)[C@]1(CC(N)=O)CCN(CC3CC3)[C@H](C2)[C@@H]1CO assayed_system="κ opioid receptor (Homo sapiens (Human))" measured=41.7
